Hello, the source for this data is paper doi:10.1101/2024.12.04.24318244v2, in case you need it.

Molecular target: 5-HT1A (Homo sapiens, UniProt P08908)
Sequence (P08908 whole entry): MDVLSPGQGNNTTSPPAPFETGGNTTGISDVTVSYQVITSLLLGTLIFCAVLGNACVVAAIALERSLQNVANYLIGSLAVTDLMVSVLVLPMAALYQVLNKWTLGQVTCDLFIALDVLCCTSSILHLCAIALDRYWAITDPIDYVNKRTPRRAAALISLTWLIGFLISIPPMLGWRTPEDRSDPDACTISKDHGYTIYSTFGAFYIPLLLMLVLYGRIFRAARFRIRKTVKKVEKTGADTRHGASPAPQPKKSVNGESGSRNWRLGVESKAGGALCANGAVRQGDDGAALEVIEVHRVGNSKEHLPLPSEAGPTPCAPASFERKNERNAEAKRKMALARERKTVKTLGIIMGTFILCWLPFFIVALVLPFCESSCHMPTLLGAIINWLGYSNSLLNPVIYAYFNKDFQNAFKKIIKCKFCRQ
Assay: radioligand competition binding
Settings: text b38 prints a wider range than the table
pKi: −log10 of the molar value.
Parameter Measured: pKi

Per the records, this compound ( CC(=O)Nc1cccc(N2CCN(CCCCNS(=O)(=O)CC3CCCCC3)CC2)c1 ) has pKi equal to 7.96 to 8.30

###

Biological target: S2R
Test: radioligand competition binding
Parameter Measured: Ki (nM)
# unit: nM | format: bare number

Readout Ki for N#Cc1cc(CN2CCC(Nc3ncnc4sc(Cl)cc34)CC2)ccc1F , test system S2R, was 42

###

Target: 5-HT1A (Homo sapiens, UniProt P08908)
Assay: radioligand competition binding
Parameter Measured: Ki

Per the records, this compound ( CC(C)n1c(=O)c(C(=O)NCCCN2CCCCC2)c(O)c2ccsc21 ) has Ki equal to > 5 µM

###

Molecular target: S2R
Assay: radioligand competition binding
Conditions: text b35 prints a range that differs from the table
Parameter Measured: pKi
Entry type: numeric. Quantity: pKi, the -log10 of concentration in molar units.

Per the records, this compound ( CC(C)n1c(=O)c(C(=O)NCCCN2CCCCC2)c(O)c2ccsc21 ) has pKi equal to 7.44
